Molecular target: T1, serum purified human Complement Factor D (human, UniProt P00746 26-253)
T1 construct: Serum purified protein flowed over the captured antibodies; also called CFD; human CFD
T1 sequence (P00746 26-253): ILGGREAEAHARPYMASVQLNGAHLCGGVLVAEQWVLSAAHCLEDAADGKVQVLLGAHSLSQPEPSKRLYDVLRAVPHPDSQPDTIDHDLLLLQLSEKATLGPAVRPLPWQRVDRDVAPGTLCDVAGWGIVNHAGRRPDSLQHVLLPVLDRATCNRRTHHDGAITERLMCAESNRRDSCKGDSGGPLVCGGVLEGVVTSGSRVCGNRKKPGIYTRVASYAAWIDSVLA
Experiment: SPR Biacore, antibody on protein A chip, single cycle kinetics, 37 C;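 note: antibodies captured on the protein A surface to roughly 70 RU in HBS-EP+ buffer, with rate and affinity constants fitted using BIAevaluation software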
MEASURED QUANTITY: pKd
Reminder that pKd is minus the log10 of a molar concentration.

54V59D / 32D60W101V (antibody, V domains shown, KCD119 TAF variant; full antibody captured on protein A) VH: EVQLVESGGGLVQPGGSLRLSCAASGYTFTDYYMNWVRQAPGKGLEWIGDINPVTGDTDYNADFKRRFTFSLDTSKSTAYLQMNSLRAEDTAVYYCTREGPSFAYWGQGTLVTVSS VL: DIQLTQSPSSLSASVGDRVTITCRSSQTIVHDNGDTYLEWYQQKPGKAPNLLIYKVSNRWSGVPSRFSGSGSGTDFTLTISSLQPEDFATYYCFQGSHVPVTFGQGTKVEIK; 10.38

Hello, please tell me recorded pKd for this one: 28Q31S54V59D / 101V (antibody, V domains shown, KCD119 TAF variant; full antibody captured on protein A) VH: EVQLVESGGGLVQPGGSLRLSCAASGYQFTSYYMNWVRQAPGKGLEWIGDINPVTGDTDYNADFKRRFTFSLDTSKSTAYLQMNSLRAEDTAVYYCTREGPSFAYWGQGTLVTVSS VL: DIQLTQSPSSLSASVGDRVTITCRSSQTIVHSNGDTYLEWYQQKPGKAPNLLIYKVSNRFSGVPSRFSGSGSGTDFTLTISSLQPEDFATYYCFQGSHVPVTFGQGTKVEIK
10.12

Return the recorded pKd value; entry: 31S54V59D / 101V (antibody, V domains shown, KCD119 TAF variant; full antibody captured on protein A) VH: EVQLVESGGGLVQPGGSLRLSCAASGYTFTSYYMNWVRQAPGKGLEWIGDINPVTGDTDYNADFKRRFTFSLDTSKSTAYLQMNSLRAEDTAVYYCTREGPSFAYWGQGTLVTVSS VL: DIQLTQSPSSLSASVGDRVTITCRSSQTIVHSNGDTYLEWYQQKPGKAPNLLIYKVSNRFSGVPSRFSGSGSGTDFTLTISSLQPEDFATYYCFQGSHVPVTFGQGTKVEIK
10.39

Identify measured pKd corresponding to 31S54I59D84T / 32W60W101V (antibody, V domains shown, KCD119 TAF variant; full antibody captured on protein A) VH: EVQLVESGGGLVQPGGSLRLSCAASGYTFTSYYMNWVRQAPGKGLEWIGDINPITGDTDYNADFKRRFTFSLDTSKSTAYLQMTSLRAEDTAVYYCTREGPSFAYWGQGTLVTVSS VL: DIQLTQSPSSLSASVGDRVTITCRSSQTIVHWNGDTYLEWYQQKPGKAPNLLIYKVSNRWSGVPSRFSGSGSGTDFTLTISSLQPEDFATYYCFQGSHVPVTFGQGTKVEIK
10.54

Give the reported value of pKd for this record: 54V / 101V (antibody, V domains shown, KCD119 TAF variant; full antibody captured on protein A) VH: EVQLVESGGGLVQPGGSLRLSCAASGYTFTDYYMNWVRQAPGKGLEWIGDINPVTGDTSYNADFKRRFTFSLDTSKSTAYLQMNSLRAEDTAVYYCTREGPSFAYWGQGTLVTVSS VL: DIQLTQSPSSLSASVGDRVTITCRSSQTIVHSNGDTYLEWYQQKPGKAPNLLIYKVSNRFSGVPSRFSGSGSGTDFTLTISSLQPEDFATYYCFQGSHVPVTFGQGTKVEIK
9.85

Where do the numbers come from? From patent US20180334496A1.
